tested on: Bordetella pertussis; test: Antibacterial activity against […] Bordetella pertussis BP117 by Etest method; assay type: functional
EXPERIMENTAL_READOUT: MIC (µg/mL)

COMPOUND: COc1c(N2CCNC(C)C2)c(F)cc2c(=O)c(C(=O)O)cn(C3CC3)c12 (configuration not stated)
BOUND_OPERATOR: =
RECORDED_NUMBER: 0.032
--
COMPOUND: CCn1cc(C(=O)O)c(=O)c2cc(F)c(N3CCNCC3)cc21
BOUND_OPERATOR: =
RECORDED_NUMBER: 0.5
--
COMPOUND: C[C@H]1COc2c(N3CCN(C)CC3)c(F)cc3c(=O)c(C(=O)O)cn1c23.C[C@H]1COc2c(N3CCN(C)CC3)c(F)cc3c(=O)c(C(=O)O)cn1c23.O
BOUND_OPERATOR: =
RECORDED_NUMBER: 0.064
--
COMPOUND: C[C@@H]1CN(c2c(F)c(N)c3c(=O)c(C(=O)O)cn(C4CC4)c3c2F)C[C@H](C)N1
BOUND_OPERATOR: =
RECORDED_NUMBER: 0.064
--
COMPOUND: CCn1cc(C(=O)O)c(=O)c2ccc(C)nc21
BOUND_OPERATOR: >
RECORDED_NUMBER: 256
--
COMPOUND: O=C(N[C@H](CO)[C@H](O)c1ccc([N+](=O)[O-])cc1)C(Cl)Cl
BOUND_OPERATOR: =
RECORDED_NUMBER: 0.25
--
COMPOUND: O=C(O)c1cn(C2CC2)c2cc(N3CCNCC3)c(F)cc2c1=O
BOUND_OPERATOR: =
RECORDED_NUMBER: 0.125
